tested.on: human Nectin-4 (Homo sapiens, UniProt Q96NY8)
Sequence (Q96NY8 32-510): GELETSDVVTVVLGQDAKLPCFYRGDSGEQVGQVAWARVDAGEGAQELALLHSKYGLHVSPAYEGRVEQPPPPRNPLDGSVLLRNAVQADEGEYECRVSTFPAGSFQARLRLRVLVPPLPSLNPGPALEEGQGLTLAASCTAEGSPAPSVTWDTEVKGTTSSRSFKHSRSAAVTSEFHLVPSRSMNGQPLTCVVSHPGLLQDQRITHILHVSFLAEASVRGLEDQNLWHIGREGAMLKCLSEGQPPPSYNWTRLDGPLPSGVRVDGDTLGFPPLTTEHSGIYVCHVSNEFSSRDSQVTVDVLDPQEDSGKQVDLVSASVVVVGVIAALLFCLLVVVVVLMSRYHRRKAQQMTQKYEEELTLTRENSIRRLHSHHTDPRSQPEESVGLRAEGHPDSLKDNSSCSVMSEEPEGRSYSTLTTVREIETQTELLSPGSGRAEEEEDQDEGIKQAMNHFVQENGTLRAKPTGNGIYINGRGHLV
test.name: Surface plasmon resonance (Biacore T200) binding to human Nectin-4
measurement.setup: human Nectin-4, 1:1 binding model, twenty-five degrees Celsius, read-out: KD
Bridge positions count the residues as written; N and C are the ends. Ends that are not written are not given here. * marks the point of attachment. DOTA = O=C(O)CN1CCN(CC(=O)O)CCN(CC(=O)*)CCN(CC(=O)O)CC1; PEG4 = NCCOCCOCCOCCOCCC(=O)O
attribute.measured: Kd
Answer as a quantity: numeral, then unit.

Data request, read-out Kd, for {DOTA-PEG4}-CEYDEEFFAGLKRLRGGDICYYIKKKFDKVPDLCIEEILDKLGC (disulfide 1-34, 20-44) [Compound C12]
0.0105 µM

###

tested.on: human Nectin-4 (Homo sapiens, UniProt Q96NY8)
test.name: Surface plasmon resonance (Biacore T200) binding to human Nectin-4
measurement.setup: Table 2B, binding affinities of exemplary compounds to Nectin-4, read-out: Binding Affinity
Bridge positions count the residues as written; N and C are the ends. Ends that are not written are not given here. * marks the point of attachment. Biotin = O=C1N[C@H]2[C@H](CS[C@H]2CCCCC(=O)*)N1; PEG4 = NCCOCCOCCOCCOCCC(=O)O
Measured log10 of Kd values are reported for all entries that follow.
Kindly note that the scale is log10 and the underlying Kd is in nM.

substance	recorded.number
{Biotin-PEG4}-CDYDEEFFTALKRLRGGDICSYIQASFQYLPGLCIEEILDNLGCS (disulfide 1-34, 20-44) [Compound C189]	0.04

Data request, read-out log10 of Kd, for {Biotin-PEG4}-CDYDEEFFTALKRLRGDDICEYIQASFQYLPGLCIEEILDNLGCS-OH (disulfide 1-34, 20-44) [Compound C191]
0.15

Data request, read-out log10 of Kd, for {Biotin-PEG4}-CEYDEQFFTALKRLRGADICSYIQASFQYLPGLCIEEILDNLGCS (disulfide 1-34, 20-44) [Compound C185]
0.00

Data request, read-out log10 of Kd, for {Biotin-PEG4}-CEYDEEFFTALARLRGSDICLYIQAKFQYLPGLCIEEILDNLGCS (disulfide 1-34, 20-44) [Compound C156]
0.04

Data request, read-out log10 of Kd, for {Biotin-PEG4}-CEYDEQFFTALKRLRGADICEYIQASFQYLPGLCIEEILDNLGCS (disulfide 1-34, 20-44) [Compound C183]
0.08

###

tested.on: human Nectin-4 (Homo sapiens, UniProt Q96NY8)
test.name: Surface plasmon resonance (Biacore T200) binding to human Nectin-4
measurement.setup: Table 2B, binding affinities of exemplary compounds to Nectin-4, read-out: Binding Affinity
Bridge positions count the residues as written; N and C are the ends. * marks the point of attachment. Biotin = O=C1N[C@H]2[C@H](CS[C@H]2CCCCC(=O)*)N1; PEG4 = NCCOCCOCCOCCOCCC(=O)O
Measured Kd values are reported for all entries that follow.
Number only, in nM; omit the unit.

Data request, read-out Kd, for {Biotin-PEG4}-CEYDGEFFTALARLRGGDICQYIQAKFQYLPGLCIEEILDNLGCS-OH (disulfide 1-34, 20-44) [Compound C158]
1.1

###

Measured log10 of Kd values are reported for all entries that follow.
tested.on: human Nectin-4 (Homo sapiens, UniProt Q96NY8)
test.name: Surface plasmon resonance (Biacore T200) binding to human Nectin-4
measurement.setup: Table 2B, binding affinities of exemplary compounds to Nectin-4, read-out: Binding Affinity
Numbered stars: 1 amine (or outer) side, 2 acyl side, 3 side chain; on linkers, the order of the positions; unused ones are H or OH. Bridge positions count the residues as written; N and C are the ends. Square brackets hold non-standard residues; d marks the D form. Ends that are not written are not given here. * marks the point of attachment. Biotin = O=C1N[C@H]2[C@H](CS[C@H]2CCCCC(=O)*)N1; X1 = O=C([C@H](CCCCO)N[*:1])[*:2]; PEG4 = NCCOCCOCCOCCOCCC(=O)O
Kindly note that the scale is log10 and the underlying Kd is in nM.

// solved cases for log10 of Kd follow
substance	tested.on	log10 of Kd
{Biotin-PEG4}-CEYDEEFFTALKRLRGGDICEYIQASFQYLPGECIEEILDNLGCS (disulfide 1-34, 20-44) [Compound C202]	human Nectin-4 (Homo sapiens, UniProt Q96NY8)	0.34
{Biotin-PEG4}-CEYDEEFFTALARLRGGDICQYIQAKFQYLPGQCIEEILDNLGCS-OH (disulfide 1-34, 20-44) [Compound C149]	human Nectin-4 (Homo sapiens, UniProt Q96NY8)	-0.12

Data request, read-out log10 of Kd, for {Biotin-PEG4}-CEYDEEFFTALKRLRGGDICDYIQASFQYLPGLCIEEILDNLGCS-OH (disulfide 1-34, 20-44) [Compound C200]
0.30

Data request, read-out log10 of Kd, for {Biotin-PEG4}-CEYDGEFFTALARLRGADICEYIQAKFQYYPGLCIEEILDNLGCS (disulfide 1-34, 20-44) [Compound C144]
0.57

Data request, read-out log10 of Kd, for {Biotin-PEG4}-CEYDEEFFTALARLRGGDICDYIQAKFQYLPGLCIAEILDNLGCS (disulfide 1-34, 20-44) [Compound C157]
0.04

Data request, read-out log10 of Kd, for {Biotin-PEG4}-CEYDEEFFTALKRLRGADICDYIQASFQYLPGLCIEEILDNLGCS (disulfide 1-34, 20-44) [Compound C195]
0.36

Data request, read-out log10 of Kd, for {Biotin-PEG4}-CEYDEEFFTALKRLRGDDICSYIQASFQYLPGLCIEEILDNLGCS (disulfide 1-34, 20-44) [Compound C182]
0.48

Data request, read-out log10 of Kd, for {Biotin-PEG4}-CEYDEEFFTALASLRGGDICYYIQAKFQYLPGLCIEEILDNLGCS-OH (disulfide 1-34, 20-44) [Compound C161]
0.88

Data request, read-out log10 of Kd, for {Biotin-PEG4}-CEYDEEFFTALKRLRGGDICDYIQASFQYLPGECIEEILDNLGCS (disulfide 1-34, 20-44) [Compound C203]
0.36

Data request, read-out log10 of Kd, for {Biotin-PEG4}-CEYDEEFFTALARLRGGDICYYIQA[X1]FQYLPGLCIEEILDNLGCS-OH (disulfide 1-34, 20-44) [Compound C164]
0.70

Data request, read-out log10 of Kd, for {Biotin-PEG4}-CDYDEQFFTALKRLRGDDICEYIQASFQYLPGLCIEEILDNLGCS (disulfide 1-34, 20-44) [Compound C193]
0.00

Data request, read-out log10 of Kd, for {Biotin-PEG4}-CEYDEEFFTALAQLRGGDICYYIQAKFQYLPGLCIEEILDNLGCS (disulfide 1-34, 20-44) [Compound C162]
0.94

Data request, read-out log10 of Kd, for {Biotin-PEG4}-CEYDEEFFTALARLRGGDICYYIQAKFQYLPKLCIEEILDNLGCS (disulfide 1-34, 20-44) [Compound C166]
-0.12

Data request, read-out log10 of Kd, for {Biotin-PEG4}-CEYDEEFFTALKRLRGGDICEYIQAAFQYLPGLCIEEILDNLGCS (disulfide 1-34, 20-44) [Compound C198]
0.36

Data request, read-out log10 of Kd, for {Biotin-PEG4}-CEYDEEFFTALARLRGGDICYYILAKFQYLPGECIEEILDNLGCS (disulfide 1-34, 20-44) [Compound C145]
0.11

###

tested.on: human Nectin-4 (Homo sapiens, UniProt Q96NY8)
Sequence (Q96NY8 32-510): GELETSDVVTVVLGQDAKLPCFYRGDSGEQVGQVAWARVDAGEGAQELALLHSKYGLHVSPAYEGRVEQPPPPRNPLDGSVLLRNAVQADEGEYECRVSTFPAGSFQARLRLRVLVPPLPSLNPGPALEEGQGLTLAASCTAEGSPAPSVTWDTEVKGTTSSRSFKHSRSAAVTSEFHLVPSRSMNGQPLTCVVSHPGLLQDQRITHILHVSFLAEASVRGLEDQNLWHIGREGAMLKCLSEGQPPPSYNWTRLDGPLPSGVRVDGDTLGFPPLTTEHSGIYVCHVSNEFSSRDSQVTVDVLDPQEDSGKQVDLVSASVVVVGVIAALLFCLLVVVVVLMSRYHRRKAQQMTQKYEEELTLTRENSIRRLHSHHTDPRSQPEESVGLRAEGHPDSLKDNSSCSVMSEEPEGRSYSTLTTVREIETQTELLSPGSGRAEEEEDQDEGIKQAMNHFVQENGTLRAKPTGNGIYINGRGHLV
test.name: Surface plasmon resonance (Biacore T200) binding to human Nectin-4
measurement.setup: Table 2B, binding affinities of exemplary compounds to Nectin-4, read-out: Binding Affinity
Numbered stars: 1 amine (or outer) side, 2 acyl side, 3 side chain; on linkers, the order of the positions; unused ones are H or OH. Bridge positions count the residues as written; N and C are the ends. Square brackets hold non-standard residues; d marks the D form. Ends that are not written are not given here. * marks the point of attachment. Biotin = O=C1N[C@H]2[C@H](CS[C@H]2CCCCC(=O)*)N1; X1 = O=C([C@H](CCCCO)N[*:1])[*:2]; Cit = NC(=O)NCCC[C@H](N)C(=O)O; PEG4 = NCCOCCOCCOCCOCCC(=O)O
attribute.measured: Kd (nM)
Number only, in nM; omit the unit.

// solved cases for Kd follow
substance	attribute.measured	output.unit	recorded.number
{Biotin-PEG4}-CEYDEEFFTALARLRGADICYYIQAKFQYLPGDCIEEILDNLGCS (disulfide 1-34, 20-44) [Compound C140]	Kd	nM	1.1
{Biotin-PEG4}-CEYDEEFFTALARLRGGDICEYIQAKFQYLEGLCIEEILDNLGCS-OH (disulfide 1-34, 20-44) [Compound C150]	Kd	nM	1

Record lookup: for human Nectin-4 (Homo sapiens, UniProt Q96NY8), what Kd belongs to {Biotin-PEG4}-CEYDEEFFTALA[Cit]LRGDDICSYIQA[X1]FQYLPGLCIEEILDNLGCS-OH (disulfide 1-34, 20-44) [Compound C170] ?
8.8
